Test system: Raji
Experiment: Inhibition of TPA-induced EBV-early antigen activation in human Raji cells assessed as EA activation at 10 mol ratio relative to TPA
Assay type: cell-based
Parameters: scale not given: the % may be the effect or the level left
Details: human gammaherpesvirus 4
Activity listing for selected molecules.
Answer format: numeric, % implied, no suffix.

COc1cc2c(c(OC)c1OC)-c1c(cc3c(c1OC)OCO3)[C@@H]1O[C@H]2[C@@H](C)[C@H]1C [NEOKADSURANIN]; 92.6

In: Specify reported Activity for the molecule shown: COc1cc2c(c(OC)c1OC)-c1c(cc3c(c1OC)OCO3)C[C@H](C)[C@](C)(O)[C@H]2OC(=O)c1ccccc1 [GOMISIN C]
Out: 100

In: Determine from records and report Activity for COc1cc2c(c(OC)c1OC)-c1c(cc3c(c1OC)OCO3)[C@H](OC(=O)c1ccccc1)[C@@](C)(O)[C@@H](C)C2 [GOMISIN G]
Out: 100

In: Specify Activity for COc1cc2c(c(OC)c1OC)-c1c(cc3c(c1OC)OCO3)[C@H](OC(C)=O)[C@H](C)[C@H](C)C2 [KADSURIN] and stop.
Out: 100

In: Answer with the recorded Activity for the molecule listed here: C/C=C(/C)C(=O)O[C@H]1c2cc3c(c4c2C(C(=O)C(=O)OC)(CO4)/C(=C/C(=O)OC)C[C@@H](C)[C@H]1C)OCO3 (stereo partly specified) [HETEROCLITIN F]
Out: 100

In: Recall and state the measured Activity for C/C=C(/C)C(=O)O[C@H]1c2cc(OC)c(OC)c(OC)c2-c2c(cc3c(c2OC)OCO3)[C@H](OC(C)=O)[C@H](C)[C@@H]1C [INTERIOTHERIN C] .
Out: 100

Where do these numbers come from? They come from ChEMBL document CHEMBL1150626.
